Test: Cmax in BALB/cAnNCrlCrlj mouse at 10 mg/kg,po
Type: ADME, organism-based
Parameters: dose 10 mg/kg, route po
Details: in vivo
In plain terms, low Cmax, meaning strictly below 2000 nM, gives criterion met, and everything else gives criterion not met.

[
  {
    "compound": "COc1ccc(C2(C(=O)N3C[C@H](F)C[C@@H]3C(=O)Nc3ccc4[nH]ncc4n3)CC(F)(F)C2)cc1",
    "category": "criterion met"
  },
  {
    "compound": "O=C(Nc1ccc2[nH]ncc2n1)[C@H]1C[C@@H](F)CN1C(=O)C1(c2ccc(O)cc2)CCCCC1",
    "category": "criterion met"
  },
  {
    "compound": "COc1ccc(C2(C(=O)N3C[C@H](F)C[C@@H]3C(=O)Nc3ccc4[nH]ncc4n3)CCC(F)(F)CC2)cc1",
    "category": "criterion not met"
  },
  {
    "compound": "COc1ccc(C2(C(=O)N3CCC[C@@H]3C(=O)Nc3cccc4[nH]ncc34)CCCC2)cc1",
    "category": "criterion met"
  },
  {
    "compound": "COc1ccc(C2(C(=O)N3C[C@H](F)C[C@@H]3C(=O)Nc3ccc4[nH]ncc4n3)CCCCC2)cc1F",
    "category": "criterion not met"
  },
  {
    "compound": "COc1ccc(C2(C(=O)N3CCOCC(Cc4cccc5[nH]ncc45)C3)CCCC2)cc1 (stereo not drawn)",
    "category": "criterion met"
  },
  {
    "compound": "CS(=O)(=O)c1ccc(C2(C(=O)N3C[C@H](F)C[C@@H]3C(=O)Nc3ccc4[nH]ncc4n3)CCC(F)(F)CC2)cc1",
    "category": "criterion met"
  },
  {
    "compound": "COc1ccc(C2(C(=O)N3C[C@H](F)C[C@@H]3C(=O)Nc3ccc4[nH]ncc4n3)CCCCC2)cc1",
    "category": "criterion not met"
  }
]

====

IC50 reference
Biological target: Histone acetyltransferase p300 (Homo sapiens)
Sequence (Q09472 whole entry): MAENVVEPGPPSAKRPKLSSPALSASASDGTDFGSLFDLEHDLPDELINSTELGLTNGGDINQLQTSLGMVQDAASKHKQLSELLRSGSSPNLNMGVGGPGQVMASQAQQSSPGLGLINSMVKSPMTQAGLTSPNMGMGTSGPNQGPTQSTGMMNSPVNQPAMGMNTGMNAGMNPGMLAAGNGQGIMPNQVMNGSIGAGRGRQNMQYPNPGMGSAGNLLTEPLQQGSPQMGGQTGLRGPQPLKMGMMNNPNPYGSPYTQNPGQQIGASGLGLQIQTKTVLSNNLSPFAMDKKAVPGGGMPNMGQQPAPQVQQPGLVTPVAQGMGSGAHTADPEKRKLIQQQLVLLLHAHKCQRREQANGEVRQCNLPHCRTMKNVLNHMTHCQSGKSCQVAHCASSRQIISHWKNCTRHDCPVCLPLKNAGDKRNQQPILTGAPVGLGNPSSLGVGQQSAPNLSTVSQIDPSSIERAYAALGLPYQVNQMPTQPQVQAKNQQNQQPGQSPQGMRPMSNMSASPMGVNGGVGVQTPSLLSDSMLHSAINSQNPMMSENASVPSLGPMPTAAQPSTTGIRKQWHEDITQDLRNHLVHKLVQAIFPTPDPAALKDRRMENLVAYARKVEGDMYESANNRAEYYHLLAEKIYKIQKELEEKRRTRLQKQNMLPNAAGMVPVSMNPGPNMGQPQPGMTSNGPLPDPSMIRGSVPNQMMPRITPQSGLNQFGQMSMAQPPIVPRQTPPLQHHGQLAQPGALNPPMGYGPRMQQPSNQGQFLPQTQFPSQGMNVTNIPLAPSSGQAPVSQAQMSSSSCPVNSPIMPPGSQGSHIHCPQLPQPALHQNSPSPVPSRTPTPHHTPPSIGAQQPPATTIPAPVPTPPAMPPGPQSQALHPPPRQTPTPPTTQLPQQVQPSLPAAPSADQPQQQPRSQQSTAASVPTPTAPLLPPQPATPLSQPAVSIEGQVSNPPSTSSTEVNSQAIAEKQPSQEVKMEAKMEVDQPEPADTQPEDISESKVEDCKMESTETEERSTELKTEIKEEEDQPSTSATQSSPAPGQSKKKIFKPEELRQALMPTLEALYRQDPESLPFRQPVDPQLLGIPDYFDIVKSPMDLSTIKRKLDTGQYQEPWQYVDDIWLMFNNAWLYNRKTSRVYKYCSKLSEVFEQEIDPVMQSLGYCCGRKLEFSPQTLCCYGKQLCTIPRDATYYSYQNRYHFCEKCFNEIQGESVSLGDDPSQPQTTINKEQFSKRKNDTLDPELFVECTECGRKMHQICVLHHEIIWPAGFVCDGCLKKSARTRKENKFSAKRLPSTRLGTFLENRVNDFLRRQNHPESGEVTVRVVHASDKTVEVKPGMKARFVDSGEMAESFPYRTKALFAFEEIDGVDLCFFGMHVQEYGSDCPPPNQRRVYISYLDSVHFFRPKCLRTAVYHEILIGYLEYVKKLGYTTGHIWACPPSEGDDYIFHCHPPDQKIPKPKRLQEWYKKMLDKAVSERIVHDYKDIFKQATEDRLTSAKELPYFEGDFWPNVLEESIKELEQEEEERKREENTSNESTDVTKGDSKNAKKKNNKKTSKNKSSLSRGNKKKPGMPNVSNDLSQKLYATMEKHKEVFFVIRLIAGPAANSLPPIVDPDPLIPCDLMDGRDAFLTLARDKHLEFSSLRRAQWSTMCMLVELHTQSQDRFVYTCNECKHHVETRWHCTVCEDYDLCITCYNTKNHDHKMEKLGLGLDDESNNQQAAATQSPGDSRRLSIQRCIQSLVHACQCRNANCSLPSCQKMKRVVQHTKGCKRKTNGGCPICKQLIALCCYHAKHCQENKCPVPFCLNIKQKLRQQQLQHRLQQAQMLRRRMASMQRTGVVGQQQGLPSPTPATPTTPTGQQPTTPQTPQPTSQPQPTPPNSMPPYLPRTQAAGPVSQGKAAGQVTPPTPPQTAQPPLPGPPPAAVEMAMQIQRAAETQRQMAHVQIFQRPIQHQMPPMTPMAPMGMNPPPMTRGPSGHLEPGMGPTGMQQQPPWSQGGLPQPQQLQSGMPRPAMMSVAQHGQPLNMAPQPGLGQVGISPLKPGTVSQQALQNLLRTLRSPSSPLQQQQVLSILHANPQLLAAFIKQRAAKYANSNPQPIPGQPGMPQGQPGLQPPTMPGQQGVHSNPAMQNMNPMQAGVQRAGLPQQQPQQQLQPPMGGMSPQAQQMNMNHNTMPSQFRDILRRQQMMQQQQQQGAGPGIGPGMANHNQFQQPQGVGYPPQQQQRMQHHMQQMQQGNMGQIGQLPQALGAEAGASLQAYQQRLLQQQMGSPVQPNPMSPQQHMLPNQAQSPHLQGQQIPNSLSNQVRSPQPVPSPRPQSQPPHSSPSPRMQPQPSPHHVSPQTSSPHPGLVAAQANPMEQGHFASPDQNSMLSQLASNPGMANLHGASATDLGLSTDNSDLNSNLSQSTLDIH
Assay: Inhibition of EP300 in human LK2 cells assessed as reduction in intracellular H3K27 acetylation incubated for 3 hrs by chemiluminescence based ELISA
Type: cell-based

[
  {
    "smiles string": "COc1ccc(C2(C(=O)N3CCC[C@@H]3C(=O)Nc3cccc4[nH]ccc34)CCCC2)cc1",
    "IC50": "304 nM"
  },
  {
    "smiles string": "O=C(Nc1ccc2[nH]ncc2n1)[C@H]1C[C@@H](F)CN1C(=O)C1(c2ccc(C(=O)C(F)(F)F)cc2)CCCCC1",
    "IC50": "21 nM"
  },
  {
    "smiles string": "O=C(Nc1ccc2[nH]ncc2n1)[C@H]1C[C@@H](F)CN1C(=O)C1(c2ccc(O)cc2)CCCCC1",
    "IC50": "13 nM"
  }
]

====

Assay: Unbound AUC in BALB/cAnNCrlCrlj mouse at 10 mg/kg,po
Type: ADME, organism-based
Conditions: in vivo

[
  {
    "compound": "COc1ccc(C2(C(=O)N3C[C@H](F)C[C@@H]3C(=O)Nc3ccc4[nH]ncc4n3)CCC(F)(F)CC2)cc1",
    "quantity unit": "µM·h",
    "fAUC": 5.33
  },
  {
    "compound": "COc1ccc(C2(C(=O)N3C[C@H](F)C[C@@H]3C(=O)Nc3ccc4[nH]ncc4n3)CCCCC2)cc1F",
    "quantity unit": "µM·h",
    "fAUC": 1.39
  },
  {
    "compound": "COc1ccc(C2(C(=O)N3CCC[C@@H]3C(=O)Nc3cccc4[nH]ncc34)CCCC2)cc1",
    "quantity unit": "µM·h",
    "fAUC": 0.029
  },
  {
    "compound": "COc1ccc(C2(C(=O)N3CCOCC(Cc4cccc5[nH]ncc45)C3)CCCC2)cc1 (stereo unspecified)",
    "quantity unit": "µM·h",
    "fAUC": 0.006
  },
  {
    "compound": "COc1ccc(C2(C(=O)N3C[C@H](F)C[C@@H]3C(=O)Nc3ccc4[nH]ncc4n3)CCCCC2)cc1",
    "quantity unit": "µM·h",
    "fAUC": 0.6
  },
  {
    "compound": "COc1ccc(C2(C(=O)N3C[C@H](F)C[C@@H]3C(=O)Nc3ccc4[nH]ncc4n3)CC(F)(F)C2)cc1",
    "quantity unit": "µM·h",
    "fAUC": 0.268
  }
]

====

Target: Histone acetyltransferase KAT6B (Homo sapiens)
Sequence (Q8WYB5 whole entry): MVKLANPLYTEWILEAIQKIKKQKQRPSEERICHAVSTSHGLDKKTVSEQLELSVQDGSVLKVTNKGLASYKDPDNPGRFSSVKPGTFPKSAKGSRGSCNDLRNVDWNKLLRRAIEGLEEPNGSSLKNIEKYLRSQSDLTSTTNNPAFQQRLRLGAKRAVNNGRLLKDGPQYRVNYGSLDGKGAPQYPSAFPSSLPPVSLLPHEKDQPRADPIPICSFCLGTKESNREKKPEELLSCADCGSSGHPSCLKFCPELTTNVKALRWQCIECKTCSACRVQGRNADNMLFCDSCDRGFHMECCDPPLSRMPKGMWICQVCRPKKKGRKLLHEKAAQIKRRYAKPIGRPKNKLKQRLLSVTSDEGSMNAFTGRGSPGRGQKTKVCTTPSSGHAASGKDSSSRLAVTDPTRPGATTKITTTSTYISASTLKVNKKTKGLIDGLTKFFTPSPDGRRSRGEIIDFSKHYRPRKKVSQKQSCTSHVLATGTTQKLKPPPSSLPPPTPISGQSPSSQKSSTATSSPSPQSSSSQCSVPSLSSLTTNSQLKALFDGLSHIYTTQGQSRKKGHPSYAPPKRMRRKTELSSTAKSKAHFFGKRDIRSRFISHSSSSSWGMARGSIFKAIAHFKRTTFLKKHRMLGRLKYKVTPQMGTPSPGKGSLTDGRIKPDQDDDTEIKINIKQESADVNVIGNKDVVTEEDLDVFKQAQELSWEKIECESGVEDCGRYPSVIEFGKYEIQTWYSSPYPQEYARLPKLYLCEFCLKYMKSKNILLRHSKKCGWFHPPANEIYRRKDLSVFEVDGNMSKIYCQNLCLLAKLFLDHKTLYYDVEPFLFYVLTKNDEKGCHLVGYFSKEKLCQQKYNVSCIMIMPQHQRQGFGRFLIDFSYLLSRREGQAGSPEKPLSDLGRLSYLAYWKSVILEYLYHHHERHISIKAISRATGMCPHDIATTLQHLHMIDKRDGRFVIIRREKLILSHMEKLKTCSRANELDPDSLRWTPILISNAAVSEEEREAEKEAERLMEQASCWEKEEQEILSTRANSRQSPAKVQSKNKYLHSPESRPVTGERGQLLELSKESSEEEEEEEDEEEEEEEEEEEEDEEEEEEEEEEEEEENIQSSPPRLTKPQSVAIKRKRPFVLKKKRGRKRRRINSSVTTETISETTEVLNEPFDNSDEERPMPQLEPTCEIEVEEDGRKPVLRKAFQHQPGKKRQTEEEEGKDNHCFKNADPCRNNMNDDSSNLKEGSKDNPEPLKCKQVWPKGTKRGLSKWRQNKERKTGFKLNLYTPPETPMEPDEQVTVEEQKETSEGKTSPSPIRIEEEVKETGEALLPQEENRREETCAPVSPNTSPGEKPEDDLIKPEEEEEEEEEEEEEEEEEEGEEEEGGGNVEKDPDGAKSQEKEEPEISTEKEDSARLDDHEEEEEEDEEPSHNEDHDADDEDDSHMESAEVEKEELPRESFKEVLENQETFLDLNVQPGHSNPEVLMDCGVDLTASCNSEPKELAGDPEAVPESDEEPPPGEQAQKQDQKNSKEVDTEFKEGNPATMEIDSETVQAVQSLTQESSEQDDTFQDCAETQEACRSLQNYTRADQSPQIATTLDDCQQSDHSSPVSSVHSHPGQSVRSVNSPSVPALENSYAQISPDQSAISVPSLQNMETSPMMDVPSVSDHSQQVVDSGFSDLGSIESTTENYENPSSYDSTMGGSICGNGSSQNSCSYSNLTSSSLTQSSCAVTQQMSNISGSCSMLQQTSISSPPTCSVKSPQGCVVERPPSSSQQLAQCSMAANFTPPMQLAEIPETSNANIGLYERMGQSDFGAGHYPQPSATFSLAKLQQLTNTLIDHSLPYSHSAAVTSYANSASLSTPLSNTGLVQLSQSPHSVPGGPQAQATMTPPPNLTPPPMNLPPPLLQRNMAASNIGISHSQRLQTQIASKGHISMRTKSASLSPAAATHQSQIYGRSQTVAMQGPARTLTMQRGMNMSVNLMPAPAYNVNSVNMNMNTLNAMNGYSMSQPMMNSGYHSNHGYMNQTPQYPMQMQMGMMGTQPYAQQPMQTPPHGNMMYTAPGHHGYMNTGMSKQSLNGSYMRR
Test: Inhibition of MYST4 (unknown origin) biotinylated H4 (1 to 25)-GSGSK peptide as substrate incubated for 1 hr in presence of acetyl-coA by AlphaLISA assay
pIC50: −log10 of the molar value.

[
  {
    "smiles string": "COc1ccc(C2(C(=O)N3C[C@H](F)C[C@@H]3C(=O)Nc3ccc4[nH]ncc4n3)CCC(F)(F)CC2)cc1",
    "pIC50": "< 4.30"
  }
]

====

Experiment: Clearance in BALB/cAnNCrlCrlj mouse at 1 mg/kg,iv administered as DMA/Tween80/saline (1:1:8 ratio) solution
Type: ADME, organism-based
Settings: in vivo

[
  {
    "smiles string": "COc1ccc(C2(C(=O)N3C[C@H](F)C[C@@H]3C(=O)Nc3ccc4[nH]ncc4n3)CCCCC2)cc1F",
    "clearance, mL/min/kg": 6.3
  }
]

====

Target: CREB-binding protein (Homo sapiens, UniProt Q92793)
Test: Inhibition of CBP (unknown origin) biotinylated H4 (1 to 25)-GSGSK peptide as substrate incubated for 1 hr in presence of acetyl-coA by AlphaLISA assay
pIC50: −log10 of the molar value.

[
  {
    "smiles string": "COc1ccc(C2(C(=O)N3C[C@H](F)C[C@@H]3C(=O)Nc3ccc4[nH]ncc4n3)CCC(F)(F)CC2)cc1",
    "assayed system": "CREB-binding protein (Homo sapiens, UniProt Q92793)",
    "pIC50": 9.00
  }
]

====

Biological target: UniProt:Q09472
Experiment: Inhibition of recombinant human full length EP300 assessed as inhibition of H4 peptide acetylation using biotinylated H4 peptide as substrate in presence of Acetyl-CoA incubated for 60 mins by TR-FRET assay
readout: log10 IC50 (log10 of the value in nM)

[
  {
    "smiles string": "CS(=O)(=O)c1ccc(C2(C(=O)N3C[C@H](F)C[C@@H]3C(=O)Nc3ccc4[nH]ncc4n3)CCC(F)(F)CC2)cc1",
    "assayed system": "UniProt:Q09472",
    "recorded value": 1.74
  },
  {
    "smiles string": "COc1ccc(C2(C(=O)N3C[C@H](O)C[C@@H]3C(=O)Nc3ccc4[nH]ncc4n3)CCCCC2)cc1",
    "assayed system": "UniProt:Q09472",
    "recorded value": 1.70
  },
  {
    "smiles string": "COc1ccc(C2(C(=O)N3CCC[C@@H]3C(=O)Nc3ccc4[nH]ncc4n3)CCCC2)cc1",
    "assayed system": "UniProt:Q09472",
    "recorded value": 1.38
  },
  {
    "smiles string": "COc1ccc(C2(C(=O)N3CCC[C@@H]3C(=O)Nc3ccc4cn[nH]c4c3)CCCC2)cc1",
    "assayed system": "UniProt:Q09472",
    "recorded value": 2.70
  },
  {
    "smiles string": "COc1ccc(C2(C(=O)N3C[C@H](F)C[C@@H]3C(=O)Nc3ccc4[nH]ncc4n3)CCC(F)(F)CC2)cc1F",
    "assayed system": "UniProt:Q09472",
    "recorded value": 1.56
  }
]

====

Assay: Oral bioavailability in BALB/cAnNCrlCrlj mouse at 10 mg/kg
Format: ADME, organism-based
Conditions: BALB/cAnNCrlCrlj, in vivo

[
  {
    "smiles string": "COc1ccc(C2(C(=O)N3C[C@H](F)C[C@@H]3C(=O)Nc3ccc4[nH]ncc4n3)CCCCC2)cc1F",
    "quantity unit": "%",
    "bioavailability": 62
  }
]

====

Test: Volume of distribution at steady state in BALB/cAnNCrlCrlj mouse at 1 mg/kg,iv administered as DMS0/10% SBE-7-betaCD (1:9 ratio) solution
Type: ADME, organism-based
Settings: in vivo, read-out: Vdss
readout: Vd (L/kg)

[
  {
    "smiles string": "COc1ccc(C2(C(=O)N3C[C@H](F)C[C@@H]3C(=O)Nc3ccc4[nH]ncc4n3)CCCCC2)cc1",
    "quantity unit": "L/kg",
    "recorded value": 0.29
  }
]

====

Test: Half life in BALB/cAnNCrlCrlj mouse at 10 mg/kg,po
Assay type: ADME, organism-based
Conditions: in vivo
half-life reference
readout: half-life (h)

[
  {
    "smiles string": "COc1ccc(C2(C(=O)N3CCC[C@@H]3C(=O)Nc3cccc4[nH]ncc34)CCCC2)cc1",
    "readout": "half-life",
    "recorded value": 0.6
  },
  {
    "smiles string": "CS(=O)(=O)c1ccc(C2(C(=O)N3C[C@H](F)C[C@@H]3C(=O)Nc3ccc4[nH]ncc4n3)CCC(F)(F)CC2)cc1",
    "readout": "half-life",
    "recorded value": 1.5
  },
  {
    "smiles string": "COc1ccc(C2(C(=O)N3C[C@H](F)C[C@@H]3C(=O)Nc3ccc4[nH]ncc4n3)CCCCC2)cc1",
    "readout": "half-life",
    "recorded value": 1.4
  },
  {
    "smiles string": "COc1ccc(C2(C(=O)N3C[C@H](F)C[C@@H]3C(=O)Nc3ccc4[nH]ncc4n3)CCCCC2)cc1F",
    "readout": "half-life",
    "recorded value": 1.2
  }
]
